# TARGET_OR_SYSTEM: EPHB1 (UniProt P54762)
# Sequence (P54762 whole entry, looked up): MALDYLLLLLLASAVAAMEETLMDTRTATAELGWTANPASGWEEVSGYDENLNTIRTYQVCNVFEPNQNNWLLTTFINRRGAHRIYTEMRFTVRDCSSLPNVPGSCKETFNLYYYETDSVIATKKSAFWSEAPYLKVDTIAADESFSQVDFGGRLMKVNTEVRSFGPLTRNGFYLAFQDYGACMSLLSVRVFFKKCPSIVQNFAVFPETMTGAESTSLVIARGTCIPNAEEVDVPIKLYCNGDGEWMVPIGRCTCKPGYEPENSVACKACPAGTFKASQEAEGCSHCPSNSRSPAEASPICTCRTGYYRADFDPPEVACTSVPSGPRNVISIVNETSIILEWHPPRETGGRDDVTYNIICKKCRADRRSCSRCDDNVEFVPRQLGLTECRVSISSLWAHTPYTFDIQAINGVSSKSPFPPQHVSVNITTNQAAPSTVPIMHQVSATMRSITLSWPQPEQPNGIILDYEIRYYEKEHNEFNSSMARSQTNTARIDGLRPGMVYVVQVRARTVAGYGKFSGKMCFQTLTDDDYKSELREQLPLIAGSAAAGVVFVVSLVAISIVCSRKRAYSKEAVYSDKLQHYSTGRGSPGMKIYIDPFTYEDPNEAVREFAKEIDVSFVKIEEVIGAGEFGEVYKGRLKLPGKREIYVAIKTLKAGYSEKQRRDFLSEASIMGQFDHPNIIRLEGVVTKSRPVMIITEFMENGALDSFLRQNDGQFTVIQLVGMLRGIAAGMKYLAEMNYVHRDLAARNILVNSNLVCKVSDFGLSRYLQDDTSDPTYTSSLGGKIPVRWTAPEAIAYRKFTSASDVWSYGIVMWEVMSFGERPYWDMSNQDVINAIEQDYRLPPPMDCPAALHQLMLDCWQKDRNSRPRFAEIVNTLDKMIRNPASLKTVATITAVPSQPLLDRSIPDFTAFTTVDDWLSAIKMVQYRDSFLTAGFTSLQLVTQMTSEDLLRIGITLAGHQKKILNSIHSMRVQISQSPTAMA
# TEST_DETAILS: phosphorylation enrichment, bacterial display (enrichment ratio); higher = better substrate or ligand; peptides without Tyr show the background;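 further: 11-residue human phosphosite peptides and single-mutation variants displayed on the E. coli surface, counted by deep sequencing, each peptide's frequency after selection divided by its frequency in the unselected input library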;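 further: frequency after pTyr selection over input frequency; kinase dosed for 20-30% of maximal phosphorylation in three min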
Each entry gets N if its phosphorylation enrichment stays under 0.7, and Y if its phosphorylation enrichment is 0.7 or above.

// below: answered sequences
- ITEM_SEQUENCE: "AVDDKYSRREE [SART1_Y685_I681V]"
  ASSIGNED_LABEL: "N"
- ITEM_SEQUENCE: "RLLVVYPSTQR [HBB_Y36_W38S]"
  ASSIGNED_LABEL: "N"
- ITEM_SEQUENCE: "VFAANYFKLLG [ROR2_Y645_D644N_YF]"
  ASSIGNED_LABEL: "N"

From here, focus on the item given below.
QUERY: Assess whether reported phosphorylation enrichment for IHTEFYDGLFP [BCR_Y561_K558T] sits at 0.7 or higher.
RESULT: Y
